Data origin: ChEMBL document CHEMBL3352572

- method notes: Cytotoxicity against HUVEC assessed as cell survival at 0.5 to 50 uM after 24 hrs by MTT assay
- Assay type: cell-based
- protocol conditions: human, HUVEC cells; read-out: Survival
Each item that follows carries a reported viability at 24 h, up to 50 µM.

C=C[C@]1(C)CC[C@@H](C(=C)COC(=O)c2ccccc2C(=O)OCC(=C)[C@@H]2CC[C@@](C)(C=C)[C@H](C(=C)C)C2)C[C@H]1C(=C)C	> 92%

Please examine the following record next.
In: Given the compound C=C[C@]1(C)CC[C@@H](C(=C)COC(=O)CCC(=O)OCC(=C)[C@@H]2CC[C@@](C)(C=C)[C@H](C(=C)C)C2)C[C@H]1C(=C)C , write its reported viability at 24 h, up to 50 µM.
Out: > 92%
